Reference source for all entries: PubChem BioAssay (NCATS)

# Test system: Es-2
# procedureSummary: Primary qHTS to identify gynecologic anti-cancer compounds using libraries of approved drugs and bioactive compounds (AID 1345084); note: % is set by controls: 0 for no effect and ±100 for the full control effect; nearly all actives have a fitted effect of over 55% in size
# conditionDescription: Gynecologic cancer cell panel viability, ATPlite luminescence, 48 h; series mostly up to 57.5 µM
Records with an inconclusive call do not appear. The source made the active and inactive calls. Calls come from the whole dose curve; as a rule, active = well fitted cell-killing curve with a large enough effect; inconclusive = small, poorly fitted or top-dose-only effect, or effect the other way; inactive = flat fitted curve, though single readings scatter.
measurementLabel: activity change, negative = cytotoxicity

molecule	activity change, negative = cytotoxicity
CC(C)C(=O)O[C@@H]1[C@@H](O)[C@@H](O[C@H]2O[C@H](CO)[C@@H](O)[C@H](O)[C@H]2O)O[C@H](CO)[C@H]1O	inactive
C=C1CCC2C(C)(C)C(O)CCC2(C)C1CCC(C)CCOC(=O)CCC(=O)O (stereo not given)	inactive
CC1[C@@H](O)[C@@H](O)C2[C@]3(C)C(C[C@H]4OC(=O)[C@H](O)[C@]1(O)[C@@]24C)C(C)(O)C[C@H](O)[C@H]3O (stereo not given in full)	inactive
C[C@@H]1O[C@@H](O[C@H]2[C@H](O[C@H]3[C@H](O[C@H]4CC[C@@]5(C=O)C(CC[C@]6(C)C5CC=C5C7CC(C)(C)C[C@@H](O)[C@]7(C)CC[C@]56C)C4(C)C)O[C@H](C(=O)O)[C@@H](O)[C@@H]3O)OC[C@@H](O)[C@@H]2O)[C@H](O)[C@H](O)[C@H]1O (stereo not given in full)	9.36% [at 11.6 µM] (inactive)

Moving on to another molecule below.
query: For Es-2, provide activity change, negative = cytotoxicity of CC(=O)OCC(=O)O[C@@H]1[C@H]2[C@@H](OC(=O)c3ccccc3)[C@@H](C)C[C@]2(O)[C@H](OC(C)=O)C2(C)[C@H]3CC(C)(C)C(=O)[C@@H]3CC1(OC(C)=O)[C@@H]2OC(C)=O (stereo not given in full) please.
result: inactive

---

# Test system: Es-2
# procedureSummary: Primary qHTS to identify gynecologic anti-cancer compounds using libraries of approved drugs and bioactive compounds (AID 1345084); note: % is set by controls: 0 for no effect and ±100 for the full control effect; nearly all actives have a fitted effect of over 55% in size
# conditionDescription: Gynecologic cancer cell panel viability, ATPlite luminescence, 48 h; series mostly up to 57.5 µM
Inconclusive results are not listed. The source made the active and inactive calls. Calls follow the shape of the dose curve; as a rule, active = well fitted cell-killing curve with a large enough effect; inconclusive = small, poorly fitted or top-dose-only effect, or effect the other way; inactive = flat fitted curve, though single readings scatter.

molecule	testedSystem	activity change, negative = cytotoxicity
C[C@@H](OC(=O)/C=C/c1ccc(O)cc1)C1=C[C@]2(C=C[C@@H]3C(C(=O)O)=CO[C@@H](O[C@@H]4O[C@H](CO[C@@H]5O[C@H](CO)[C@@H](O)[C@H](O)[C@H]5O)[C@@H](O)[C@H](O)[C@H]4O)[C@@H]32)OC1=O	Es-2	inactive
CC(C)(O)c1ccc2c(c1)C(O)CC1C(C)(C(=O)O)CCCC21C (stereo not drawn)	Es-2	inactive
C[C@@H]1O[C@@H](OC[C@H]2O[C@@H](OCC3CCC4CC3C4(C)C)[C@H](O)[C@@H](O)[C@@H]2O)[C@H](O)[C@H](O)[C@H]1O (stereo partly drawn)	Es-2	inactive

---

# Tested on: JCK
# procedureSummary: qHTS profiling for inhibitors of Plasmodium falciparum proliferation (AID 504749);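 note: 0% = DMSO vehicle and full inhibition = artemisinin control; nearly all actives have a fitted effect of over 60% in size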
# conditionDescription: P. falciparum in erythrocytes, SYBR Green DNA, 72 h; series mostly up to 28.7 µM
Results filed as inconclusive are left out. The source made the active and inactive calls. Calls follow the shape of the dose curve; as a rule, active = well fitted inhibition curve with a large enough effect; inconclusive = small, poorly fitted or top-dose-only effect; inactive = flat fitted curve, though single readings scatter.
Select the correct class. Options are active, inactive and nothing else.

compound	classification
O=CCCCC=O	inactive

query: For CCOc1ccc(N=Nc2ccc(N)cc2N)cc1 , which call appears in the assay record?
result: inactive

query: Hello, I am checking results. What call was entered for O=C(O)c1cc(=O)c2c3nc4ccccc4oc-3cc(=O)c2[nH]1 ?
result: inactive

query: Hello, I am checking results. What call was entered for O=C(COc1ccc(Cl)cc1)OCCNC12CC3CC(CC(C3)C1)C2 ?
result: inactive
